target: Nuclear receptor ROR-gamma (Mus musculus) (UniProt P51450); experiment: qHTS for inhibitors of ROR gamma transcriptional activity; conditions: Drosophila S2 Gal4-RORgamma UAS-luciferase reporter, 20 h; series mostly up to 53.6 µM; note: nearly all actives have a fitted effect of over 60% in size; note: potency is the fitted concentration of half-maximal effect
Sequence (P51450 whole entry, looked up, the tested form may be a part): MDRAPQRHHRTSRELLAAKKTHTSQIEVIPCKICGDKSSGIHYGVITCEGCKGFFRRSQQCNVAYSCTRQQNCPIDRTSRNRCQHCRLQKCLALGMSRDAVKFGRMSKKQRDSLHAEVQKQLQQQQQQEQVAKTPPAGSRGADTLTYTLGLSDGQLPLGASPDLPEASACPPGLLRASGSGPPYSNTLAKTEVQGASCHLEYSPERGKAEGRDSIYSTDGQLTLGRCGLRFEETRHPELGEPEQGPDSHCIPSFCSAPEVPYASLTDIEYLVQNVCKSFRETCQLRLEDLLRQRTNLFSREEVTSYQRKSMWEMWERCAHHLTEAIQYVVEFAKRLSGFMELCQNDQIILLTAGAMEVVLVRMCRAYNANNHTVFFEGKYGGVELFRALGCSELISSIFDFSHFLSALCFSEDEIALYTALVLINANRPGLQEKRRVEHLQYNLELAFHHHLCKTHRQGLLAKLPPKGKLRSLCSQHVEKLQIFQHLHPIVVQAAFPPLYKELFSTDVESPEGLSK
About 17,000 (5.5%) of roughly 310,000 compounds were called active. Roughly 11% stayed inconclusive and do not appear here. The sample as a whole holds a higher share of actives than the screen did.
measurementName: Potency

Answered cases to consult:
- CCc1c(C)c2ccc(OC3CCCCC3=O)cc2oc1=O (stereo unspecified): inactive
- COc1ccc(C(O)(C2CCCCC2)C(CN2CCCC2)c2ccccc2)cc1 (stereo unspecified): inactive
- COc1ccc(OC)c(C(=O)CSc2nnc(-c3cccs3)o2)c1: 7.08 µM (active)
- COc1ccc(-n2c(C)cc(C(=O)CSc3nnc(-c4cccs4)o3)c2C)cc1: inactive

// returns reported Potency for input "COc1ccc(C(=O)CC(=O)c2ccc(C)cc2)c(O)c1" 10 µM (active)

// returns reported Potency for input "COc1ccc(C(=O)C[n+]2ccc(C)cc2)cc1" inactive

// returns reported Potency for input "CC1CCN(C(=O)c2ccccc2NC(=O)Cc2ccccc2)CC1" inactive

Entry source: PubChem BioAssay AID2551
